Recorded below: GI50, system EKVX NSCLC.

O=C(O)c1ccc(NCn2nc(-c3ccccc3O)oc2=S)cc1O    > 100 µM
CSc1nc(SC)c2cnn(-c3ccnc4cc(Cl)ccc34)c2n1    25.9 µM

--- query ---
Under EKVX NSCLC, report GI50 for CC(C)[C@]12O[C@H]1[C@@H]1O[C@]13[C@]1(O[C@H]1C[C@H]1C4=C(CC[C@@]13C)C(=O)OC4)[C@@H]2OC(=O)OC(C)(C)C
0.0573 µM

====

system: PC-3 prostate; assay: NCI tumour cell line growth inhibition, 48 h
endpoint label: TGI (µM)
Give a bare numeral; the unit µM is implied.

Record excerpt, results attached:
O=c1[nH]ncc2[nH]c(-c3ccccc3)cc12    95.1
CC(C)c1ccc2c(c1)CCC1C(C)(CN)CCCC21C (stereo not given)    3.12
Cc1ccc(NC(=O)C23CC4CC(CC(C4)C2)C3)c(C(=O)NNC(=O)c2ccc(Cl)cc2)c1    69.5

Provide TGI value for the following compound: O=C(NCCCNc1cc(-c2cn(-c3ccccc3)nc2-c2cccc(O)c2)ccn1)c1ccc(F)cc1
15.7
